Cited source for all entries: patent EP2173323B1

assay_text: Cooling strength of coolants relative to menthol
protocol_conditions: menthol = 100
measured_parameter: Cooling strength relative to menthol
Form field (numeric): enter value without unit.

For orientation, consider the following solved cases.
CC1CCC(C(C)C)C2(C1)OCC(CO)O2 (stereo not drawn) = 41
CNC(=O)C(C)(C(C)C)C(C)C = 75

Cooling strength relative to menthol for C=C(C)C1CCC(C)CC1O (stereo not drawn) is 25

Cooling strength relative to menthol for CC1CCC(C(C)C)C(OC(=O)C(C)O)C1 (stereo not drawn) [Menthyl lactate] is 43

Cooling strength relative to menthol for CCNC(=O)C1CC(C)CCC1C(C)C (stereo not drawn) [WS-3, N-ethyl-p-menthane-3-carboxamide] is 150

Cooling strength relative to menthol for CC1CCC(C(C)C)C(O)C1 (stereo not drawn) is 100
